Attribution: PubChem BioAssay (NCATS)

- experiment_summary: Cell Viability - MRC5 (AID 434);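 further: cells exposed to compound for 40 hours at 37 °C; potency reflects cytotoxicity seen as loss of intracellular ATP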
- measurement_conditions: MRC5 lung fibroblast viability, qHTS
Records with an inconclusive call do not appear. Calls of active or inactive are those of the source. The call rests on the fitted dose curve.
Choose one outcome from this list and give only that: 1 = active, -1 = inactive

Solved entries (count: 3):
molecule	class_label
c1ccc(Nc2cccc3ccccc23)cc1	-1
CC(C)COC(=O)COc1cc(Cl)c(Cl)cc1Cl	-1
O=[N+]([O-])c1ccccc1Nc1ccccc1	-1

Called result for C=CC(C)(O)CCCC(C)CCCC(C)CCCC(C)C (stereo not drawn)
-1

Called result for `Oc1cc(Cl)cc(Cl)c1Cl`
-1

Called result for `CC(=O)c1ccc(Cl)c(Cl)c1Cl`
-1

Called result for `C/C=C/C=C/C=O`
-1

Called result for `C1CCCNCC1`
-1

Called result for `c1ccc(COCc2ccccc2)cc1`
-1

Called result for C[C@@H]1CC2(OC(O)[C@]3(C)O[C@H]23)O[C@H]2C[C@@]3(C)[C@@H]4CC[C@H]5C(C)(C)C(O[C@@H]6OC[C@@H](O)[C@H](O)[C@H]6O)CC[C@@]56C[C@@]46CC[C@]3(C)[C@@H]12 (stereo partly drawn)
-1

Called result for `CC(/C=C/C=C(C)/C=C/C(=O)O)=C\C=C\C=C(C)\C=C\C=C(C)\C=C\C(=O)O`
-1

Called result for `CCCCCCN`
-1

Called result for `CC(C)(C)C(=O)C1C(=O)c2ccccc2C1=O`
-1

Called result for `Oc1ccc2c(c1)OCO2`
-1

Called result for CC(=O)OC(C(=O)c1ccccc1)c1ccccc1 (stereo not drawn)
-1

Called result for `CC1=C(/C=C/C(C)=C/C=C/C(C)=C/C=O)C(C)(C)CCC1`
1

Called result for `C=C(C#N)C(=O)OCC`
-1

Called result for `OCC(CO)(CBr)CBr`
-1
